# PROTOCOL_TEXT: protein stability index of a GFP-peptide fusion (GPS, HEK-293T) (PSI 1-6); higher = more stable;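 further: 24-mer peptide tiles fused after GFP, lentivirally expressed, FACS-sorted into six equal bins by GFP/DsRed ratio, decoded by Illumina sequencing, PSI is the read-weighted mean bin number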
# DETAILS: treatment: MLN4924 1 uM, 8 h; c terminus: a fixed tail appended
Would you kindly list protein stability index for each of these sequences?
Give bare numbers.

{"CHAIN": "LSLTSSASRLLTTALTSFCAKYTY [FANCE]", "NUMERIC_RESULT": 2.81}
{"CHAIN": "WLLTHLLWFANAHLLSWFSPTIIF [DHCR7]", "NUMERIC_RESULT": 2.96}
{"CHAIN": "LYGALNPQYEFKEAAGSFTSSLAQ [IRX6]", "NUMERIC_RESULT": 2.55}
{"CHAIN": "ADVNAQSSTGNTALTYACAGGYVD [ANKRD17]", "NUMERIC_RESULT": 4.49}
{"CHAIN": "STPRPPEASSSPPEGSQDRNTSWG [TLE6]", "NUMERIC_RESULT": 5.29}
{"CHAIN": "SKLKGAAVKLADFGLAIEVEGEQQ [CAMK2A]", "NUMERIC_RESULT": 4.4}

Give me protein stability index for each of these sequences, listed below.
1. NERKVAQLAEENERLKQEIERLTR [DDIT3]
2. LFDFDLEVKPVLEVLVGKTIEQSL [RSPH3]
3. YDPRFNSWIQLPPMQERRASFYAC [KLHL14]

5.18
2.42
2.22

====

# PROTOCOL_TEXT: protein stability index of a GFP-peptide fusion (GPS, HEK-293T) (PSI 1-6); higher = more stable
# DETAILS: treatment: MLN4924 1 uM, 8 h; c terminus: a fixed tail appended
Kindly supply the reported protein stability index values for the records listed here.
Numbers only.

Recorded protein stability index, per entry:
{"CHAIN": "VKKKKEEGVIDSSDKEIVAEAERL [EIF5]", "protein stability index": 5.46}
{"CHAIN": "GAERLDALLADEERCLSCILAQQP [TRADD]", "protein stability index": 3.83}
{"CHAIN": "LRPSYTGLSSSSARFLSRSIPSLQ [CDC14A]", "protein stability index": 2.85}
{"CHAIN": "NIVFGTGPRVGEALVSHPEVPLIS [ALDH8A1]", "protein stability index": 2.83}
{"CHAIN": "EWETEVEMDKLRASDIMEPNLTYV [CLCN6]", "protein stability index": 4.08}

Below are some sequences; for each one, tell me its protein stability index.
1. GQFYLDLYPREGKYNHAACFGLQP [NLN]
2. LSIYVGCDKYPHESQLPEEWENNR [CPXM2]
3. MITVPIGLYFTTKSYIFEGALGMS [VMA21]
4. WSLGVIMYEMLIGYPPFCSETPQE [STK38L]

2.09
3.25
2.89
2.52

Look up protein stability index for the entries below, preserving their order.
1. QPKQLIVDDLKGSLKEDLTQHKFI [SPRY1]
2. FSAPDPPRPRPVSLSLRLPHQPVT [SMTNL2]
3. MLLRKFAESKGTGREKPGPLDFEA [FCHO1]
4. RMLFWACSTNKPEGYRVSQALREN [FAF2]
5. LFAELGYFTDTDELQLEAANETYE [ATF6]
6. GSQLPKPRMLRESGHGDAHLQEYA [FATE1]
7. NCPWPMSCPGSSYRTVVRPTYKVM [EMID1]
8. SHRAAGSGVSDYDYLDLDKMSLYS [TRIM9]

1: 4.2; 2: 3.91; 3: 2.86; 4: 2.46; 5: 4.15; 6: 4.5; 7: 2.47; 8: 3.44

Field: protein stability index. Fill in for each record below.
1. IVLGPYHVKFRSLSMVSECLFSLI [MCOLN1]
2. RRHTSMERYDPNIDQWSMLGDMQT [KLHL12]
3. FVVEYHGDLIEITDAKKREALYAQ [KMT5A]
4. HQPPYIIAVLPRYVEIRTFEPRLL [VPS39]
5. PLLPPAMGTEPAPSAPEALHSLPG [TBX6]

1. 2.78
2. 3.82
3. 2.73
4. 2.38
5. 5.06

Could I get protein stability index for every one of these entries?
1. HYYKENDPSVRLKIASLLGLLSKT [INTS4]
2. GESFPAQVPSGEDQTALSLEECLR [NFE2L1]
3. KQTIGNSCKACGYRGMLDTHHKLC [EIF5]
4. ALHCPTGTEYTCKVYPVQEALAVL [TRIB3]

2.18
5.15
2.81
2.28
